B1: glmS ribozyme (parent)
chain: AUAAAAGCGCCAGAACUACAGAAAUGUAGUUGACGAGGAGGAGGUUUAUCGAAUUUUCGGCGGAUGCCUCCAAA

# Variants of: B1
# protocol: self-cleavage kobs at 10000 uM GlcN6P; higher = faster cleavage; RNA array
# details: with glucosamine-6-phosphate
This sample holds only a part of the variants without activity.
quantity name: self-cleavage kobs at 10000 uM GlcN6P

[[record]]
variant_name = "A6G A33C A64G"
assay_value = "< 1e-05 s⁻¹"


Query :: Give recorded self-cleavage kobs at 10000 uM GlcN6P. C8A A39C
Result :: < 1e-05 s⁻¹
